Recorded values, source the FLAb antibody collection (doi:10.7554/elife.23156).

B1: scFv; the commonest letter at each place (parent)
chain 1: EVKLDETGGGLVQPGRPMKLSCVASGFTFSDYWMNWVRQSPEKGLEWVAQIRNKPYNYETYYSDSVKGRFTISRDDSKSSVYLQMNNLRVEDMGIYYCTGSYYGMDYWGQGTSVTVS
chain 2: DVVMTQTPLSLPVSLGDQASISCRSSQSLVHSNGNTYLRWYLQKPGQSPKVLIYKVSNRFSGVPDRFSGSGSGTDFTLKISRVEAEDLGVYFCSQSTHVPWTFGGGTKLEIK

- Variants of: B1
- method.notes: Kd (Tite-Seq)
- test.conditions: with fluorescein; format: scFv 4-4-20, heavy + light
measure: Kd

Req: Quote Kd reported for chain 1 G104N W108M G109E please.
Resp: ≥ 10 µM

Req: Quote Kd reported for chain 1 W33Q W36V please.
Resp: ≥ 10 µM

Req: Quote Kd reported for chain 1 S30I W33Y V37P please.
Resp: 7.33 µM

Req: Quote Kd reported for chain 1 F29S S30H please.
Resp: 0.832 µM

Req: Quote Kd reported for chain 1 Y103Q M105T please.
Resp: ≥ 10 µM

Req: Quote Kd reported for chain 1 M105R G109T please.
Resp: ≥ 10 µM

Req: Quote Kd reported for chain 1 W108N please.
Resp: 0.031 µM

Req: Quote Kd reported for chain 1 S101R please.
Resp: ≥ 10 µM

Req: Quote Kd reported for chain 1 T28N N35V please.
Resp: ≥ 10 µM

Req: Quote Kd reported for chain 1 F29G Y32Q please.
Resp: ≥ 10 µM

Req: Quote Kd reported for chain 1 G100A M105Q please.
Resp: 0.0245 µM

Req: Quote Kd reported for chain 1 Y102Q G104L please.
Resp: ≥ 10 µM

Req: Quote Kd reported for chain 1 S101Q M105S please.
Resp: ≥ 10 µM

Req: Quote Kd reported for chain 1 W36T V37M please.
Resp: ≥ 10 µM

Req: Quote Kd reported for chain 1 T28Y W36Q please.
Resp: ≥ 10 µM

Req: Quote Kd reported for chain 1 D31L Y32A please.
Resp: 0.0944 µM

Req: Quote Kd reported for chain 1 F29H W36D please.
Resp: ≥ 10 µM

Req: Quote Kd reported for chain 1 T28L V37Q please.
Resp: 0.0102 µM

Req: Quote Kd reported for chain 1 S30R please.
Resp: 0.000964 µM

Req: Quote Kd reported for chain 1 G104C Y107F please.
Resp: ≥ 10 µM

Req: Quote Kd reported for chain 1 Y107D please.
Resp: 7.72 µM

Req: Quote Kd reported for chain 1 T28C Y32P please.
Resp: ≥ 10 µM

Req: Quote Kd reported for chain 1 D31I W33D please.
Resp: ≥ 10 µM

Req: Quote Kd reported for chain 1 Y103P G109S please.
Resp: ≥ 10 µM

Req: Quote Kd reported for chain 1 Y32E W36Q please.
Resp: 0.216 µM

Req: Quote Kd reported for chain 1 Y102L W108Q please.
Resp: ≥ 10 µM

Req: Quote Kd reported for chain 1 Y103F W108Q please.
Resp: 0.00672 µM

Req: Quote Kd reported for chain 1 D31A M34L V37G please.
Resp: 0.021 µM

Req: Quote Kd reported for chain 1 M105T please.
Resp: ≥ 10 µM

Req: Quote Kd reported for chain 1 S101M Y103G please.
Resp: ≥ 10 µM

Req: Quote Kd reported for chain 1 F29S W33C please.
Resp: ≥ 10 µM

Req: Quote Kd reported for chain 1 F29C D31M please.
Resp: ≥ 10 µM

Req: Quote Kd reported for chain 1 G100Y G104C please.
Resp: ≥ 10 µM

Req: Quote Kd reported for chain 1 S30R W33F M34V please.
Resp: 0.105 µM

Req: Quote Kd reported for chain 1 Y103F Y107V please.
Resp: 0.0146 µM

Req: Quote Kd reported for chain 1 F29N M34A please.
Resp: ≥ 10 µM

Req: Quote Kd reported for chain 1 S101W please.
Resp: ≥ 10 µM

Req: Quote Kd reported for chain 1 F29D V37D please.
Resp: ≥ 10 µM

Req: Quote Kd reported for chain 1 T28Y Y32K please.
Resp: ≥ 10 µM

Req: Quote Kd reported for chain 1 G100V W108C please.
Resp: 5.96 µM

Req: Quote Kd reported for chain 1 F29V please.
Resp: 0.00967 µM

Req: Quote Kd reported for chain 1 S30W D31V please.
Resp: ≥ 10 µM

Req: Quote Kd reported for chain 1 G100L S101M please.
Resp: ≥ 10 µM

Req: Quote Kd reported for chain 1 W33S W36D please.
Resp: ≥ 10 µM

Req: Quote Kd reported for chain 1 S30C M34V please.
Resp: 0.00827 µM

Req: Quote Kd reported for chain 1 S30Q please.
Resp: 0.000938 µM

Req: Quote Kd reported for chain 1 S101T M105T please.
Resp: ≥ 10 µM

Req: Quote Kd reported for chain 1 S101C G109D please.
Resp: ≥ 10 µM

Req: Quote Kd reported for chain 1 G100S M105Q D106N please.
Resp: ≥ 10 µM

Req: Quote Kd reported for chain 1 M34P N35D please.
Resp: ≥ 10 µM

Req: Quote Kd reported for chain 1 D106A Y107F please.
Resp: 1.91 µM

Req: Quote Kd reported for chain 1 D31Y W33C please.
Resp: ≥ 10 µM

Req: Quote Kd reported for chain 1 D31Q N35L please.
Resp: ≥ 10 µM

Req: Quote Kd reported for chain 1 M105R D106N please.
Resp: 0.61 µM

Req: Quote Kd reported for chain 1 S101D G109I please.
Resp: ≥ 10 µM

Req: Quote Kd reported for chain 1 W33D N35G please.
Resp: ≥ 10 µM

Req: Quote Kd reported for chain 1 Y102E Y103I please.
Resp: ≥ 10 µM

Req: Quote Kd reported for chain 1 Y107C please.
Resp: ≥ 10 µM

Req: Quote Kd reported for chain 1 T28Q V37L please.
Resp: 3.55 µM
